This section presents molecules with their documented fluorescence intensity values.
methodSummary: compound fluorescence in toxin protease inhibitor counterscreen, primary screen, artefact control for toxin protease inhibitor project, biochemical, multiplex microsphere, HTS (AID 624483)
testParameters: compound autofluorescence counterscreen, microsphere flow cytometry; stronger effect = higher value
Among all 360,000 compounds or so, about 11,000 (3.1%) were called active. About 2% were inconclusive and are not listed. The entries come from a sample that favours actives as a whole.
readoutName: fluorescence intensity

molecule="O=C1C(C=NCC2CCCO2)=C(O)c2ccccc21 (stereo unspecified)" valuereported=21000
molecule=O=C(Nc1ccc(C(=O)N2CCOCC2)cc1)Nc1cccc(C(F)(F)F)c1 valuereported=6040
molecule=NC(=O)Nc1cccc(C(F)(F)F)c1 valuereported=23300
molecule="COc1ccc(CNC(=O)C2CC(c3ccc(C(F)(F)F)cc3)=NO2)cc1 (stereo unspecified)" valuereported=4040
molecule=CC(C)(C)NC(=O)COc1ccc(CNc2ccc3[nH]c(=O)[nH]c3c2)cc1 valuereported=22600
molecule="Cc1ccc(-n2c(O)c(C=NCC3CCCO3)c(=O)[nH]c2=O)c(C)c1 (stereo unspecified)" valuereported=6540
molecule=CC(C)c1cc(C(N)=O)c(NC(=O)c2cccc(COc3ccc(Br)cc3)c2)s1 valuereported=22100
molecule=COc1ccc(S(=O)(=O)N2CCC(C(=O)NCc3ccco3)CC2)cc1C valuereported=3590
molecule="CC(C(=O)NC1CCCC1)N1CCN(S(=O)(=O)c2ccccc2Cl)CC1 (stereo unspecified)" valuereported=4750
molecule=O=C(COc1ccc([N+](=O)[O-])cc1Cl)Nc1ccc2[nH]c(=O)[nH]c2c1 valuereported=4100
molecule="COc1ccc(S(=O)(=O)NC(C)C(=O)N2CCCCCC2)cc1 (stereo unspecified)" valuereported=3500

* * *

methodSummary: compound fluorescence in toxin protease inhibitor counterscreen, primary screen, artefact control for toxin protease inhibitor project, biochemical, multiplex microsphere, HTS (AID 624483)
testParameters: compound autofluorescence counterscreen, microsphere flow cytometry; stronger effect = higher value
Among all 360,000 compounds or so, about 11,000 (3.1%) were called active. Another 2% or so got no clear call; they are omitted. This is one part of a sample in which actives are shown more often than they occur.
Use 3000 as the dividing line for fluorescence intensity, with the line itself on the fulfilled side and lower values as not fulfilled.

compound=COc1ccc(-c2cc(-c3ccc(N)cc3)nc(N)c2C#N)cc1OC classification=fulfilled
compound=CCOn1c(SC(C)C)nc2ccccc2c1=O classification=fulfilled
compound="CC(C)(C)C1C/C(=C/c2ccco2)C(=O)/C(=C/c2ccco2)C1 (configuration not stated)" classification=fulfilled
compound=CC(=O)c1cccc(NC(=O)c2cc(C)nn2-c2ccccc2)c1 classification=fulfilled
compound=COc1ccc(C(=O)Nc2c(N)nc(SCC(=O)N3CCC(C)CC3)[nH]c2=O)cc1OC classification=fulfilled
compound=Cc1cc(Br)ccc1SCC(=O)OCC(=O)NCc1ccc2c(c1)OCO2 classification="not fulfilled"
compound="COc1ccc(-n2c(SCC(=O)Nc3ccc4c(c3)OCO4)nnc2C(C)N2CCCCC2)cc1 (configuration not stated)" classification=fulfilled
compound=COc1ccc(C(=O)CC2C(=O)N(C)C(=O)N(C)C2=O)cc1 classification=fulfilled
compound=O=C(c1cc2nc(-c3ccccc3)cc(-c3ccccc3)n2n1)N1CCC2(CC1)OCCO2 classification="not fulfilled"
compound=c1ccc(-c2ccnc3nc(-n4cccc4)nn23)cc1 classification=fulfilled
compound=COCCCNC(=O)CNC(=S)N(Cc1cc(OC)c(OC)c(OC)c1)C1CCCC1 classification="not fulfilled"
compound="CCOC(=O)C(C)Sc1nc2ccccc2c(=O)n1CC1CCCCC1 (configuration not stated)" classification=fulfilled
